tested.target: human A3AR (Homo sapiens, UniProt P0DMS8)
Construct: expressed in transfected cells
Sequence (P0DMS8 1-318): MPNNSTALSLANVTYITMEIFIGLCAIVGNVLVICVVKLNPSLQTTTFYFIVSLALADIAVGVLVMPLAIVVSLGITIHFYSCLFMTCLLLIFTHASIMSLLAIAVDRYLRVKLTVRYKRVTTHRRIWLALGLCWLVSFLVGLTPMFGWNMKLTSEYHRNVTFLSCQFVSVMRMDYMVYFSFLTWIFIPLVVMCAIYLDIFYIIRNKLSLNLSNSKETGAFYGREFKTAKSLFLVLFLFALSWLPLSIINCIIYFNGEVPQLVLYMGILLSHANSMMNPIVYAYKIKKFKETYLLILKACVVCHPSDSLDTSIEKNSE
assay.remarks: LOPAC library primary screen: single concentration (10 μM) inhibition of 25 nM CA200645 binding, PHERAstar FS
Counter-ions that a name gives are not always drawn.
Measured % 25 nM CA200645 binding, listed per entry for reference.
recorded.metric: % 25 nM CA200645 binding (%)

molecule	endpoint.result
CN(C)CCC(c1ccccc1)c1ccccn1 (centres unmarked) [Pheniramine maleate]	91.5
CC(=O)c1ccc2c(c1)N(CCCN(C)C)c1ccccc1S2 [Acepromazine maleate]	90.7
CC1=C(C(=O)O)N2C(=O)[C@@H](NC(=O)[C@H](N)C3=CCC=CC3)[C@H]2SC1 [Cephradine]	95.6
COc1ccccc1N1CCN(CCCNc2cc(=O)n(C)c(=O)n2C)CC1 [Urapidil hydrochloride]	97.1
CN(C)[C@@H]1C(O)=C(C(N)=O)C(=O)[C@@]2(O)C(O)=C3C(=O)c4c(O)ccc(Cl)c4[C@@H](O)[C@H]3C[C@@H]12 [Demeclocycline hydrochloride]	98.1
Cl.NCC(O)c1cc(O)c(O)cc1F (centres unmarked) [6-Fluoronorepinephrine hydrochloride]	77.6
Cl.N=C(N)NN [Aminoguanidine hydrochloride]	100.9
CC(C)c1ccc2c(c1)c(SC(C)(C)C)c(CC(C)(C)C(=O)O)n2Cc1ccc(Cl)cc1 [MK-886]	98.7
NCCCCNCCCN [Spermidine trihydrochloride]	102.2
CC(=O)[C@H]1CC[C@H]2[C@@H]3CC[C@H]4C[C@H](O)CC[C@]4(C)[C@H]3CC[C@]12C [5alpha-Pregnan-3alpha-ol-20-one]	85.2
C#CCN[C@H](C)Cc1ccccc1.Cl [R-(-)-Desmethyldeprenyl hydrochloride]	101.0
O=C1CCC(c2ccc(-n3ccnc3)cc2)=NN1 [Imazodan]	97.4
CCCn1c(=O)c2c(ncn2C)n(CCC)c1=O [1,3-Dipropyl-7-methylxanthine]	102.9
Oc1ccc2c3c1O[C@H]1c4[nH]c5ccccc5c4C[C@@]4(O)[C@@H](C2)N(CC2CC2)CC[C@]314 [Naltrindole hydrochloride]	111.0
Cc1cnc(C(=O)NCCc2ccc(S(=O)(=O)NC(=O)NC3CCCCC3)cc2)cn1 [Glipizide]	96.3
COc1ccc(-c2cc3nccn3c(Nc3ncccc3C(N)=O)n2)cc1OC.Cl.O [BAY 61-3606 hydrochloride hydrate]	83.8
O=C1CCc2cc(OCCCCc3nnnn3C3CCCCC3)ccc2N1 [Cilostazol]	105.8

---

tested.target: human A3AR (Homo sapiens)
Construct: expressed in transfected cells
assay.remarks: LOPAC library primary screen: single concentration (10 μM) inhibition of 25 nM CA200645 binding, PHERAstar FS
Counter-ions that a name gives are not always drawn.

compound	tested.target	% 25 nM CA200645 binding / %
Nc1nc2ccc(Cl)cc2n2c(-c3ccccc3)nnc12 [CP-66713]	human A3AR (Homo sapiens)	93.9
CC(C)(C)c1ccc(S(=O)(=O)/C=C/C#N)cc1 [Bay 11-7085]	human A3AR (Homo sapiens)	95.2
Fc1ccc(C(c2ccc(F)cc2)N2CCN(C/C=C/c3ccccc3)CC2)cc1 [Flunarizine dihydrochloride]	human A3AR (Homo sapiens)	102.1
CCC1(c2ccc(N)cc2)CCC(=O)NC1=O (racemic) [(±)-p-Aminoglutethimide]	human A3AR (Homo sapiens)	94.1
CC(C)(C)[C@]1(O)CCN2C[C@H]3c4ccccc4CCc4cccc(c43)[C@@H]2C1 [(+)-Butaclamol hydrochloride]	human A3AR (Homo sapiens)	98.6
Br.CCCN1CCc2cc(O)cc3c2[C@H]1Cc1ccc(O)c(O)c1-3	human A3AR (Homo sapiens)	89.0
COc1cc(NS(C)(=O)=O)ccc1Nc1c2ccccc2nc2ccccc12 [Amsacrine hydrochloride]	human A3AR (Homo sapiens)	99.8
Cc1cc2c(C(C)C)c(O)c(O)c(C=O)c2c(O)c1-c1c(C)cc2c(C(C)C)c(O)c(O)c(C=O)c2c1O [Gossypol]	human A3AR (Homo sapiens)	54.1

---

Measured % 25 nM CA200645 binding, listed per entry for reference.
tested.target: human A3AR (Homo sapiens, UniProt P0DMS8)
Construct: expressed in transfected cells
assay.remarks: LOPAC library primary screen: single concentration (10 μM) inhibition of 25 nM CA200645 binding, PHERAstar FS
Structures can show the parent of a compound that is named as a salt.

compound	% 25 nM CA200645 binding [%]
NNc1nncc2ccccc12 [Hydralazine hydrochloride]	100.6
CCCCCCCCc1ccc(-c2ccc(C(=O)O)cc2)cc1 [AC-55649]	83.6
Cc1ccc(/C(=C\CN2CCCC2)c2ccccn2)cc1.Cl [Triprolidine hydrochloride]	90.2
NC(=O)CI [Iodoacetamide]	101.9
CN(C)CCCN1c2ccccc2CCc2ccccc21 [Imipramine hydrochloride]	99.2
Brc1c(NC2=NCCN2)ccc2nccnc12 [UK 14,304]	102.1
COC(=O)C(C)(N)Cc1ccc(O)cc1.Cl (racemic)	108.9
CC1(C)CCC2=C(O1)c1ccccc1C(=O)C2=O [beta-Lapachone]	93.1
O=C(O)c1nn(Cc2ccc(Cl)cc2Cl)c2ccccc12 [Lonidamine]	94.6
NC(=O)c1cn(Cc2c(F)cccc2F)nn1 [Rufinamide]	100.9

---

tested.target: human A3AR (Homo sapiens, UniProt P0DMS8)
Construct: expressed in transfected cells
assay.remarks: HTS (PHERAstar FS) fluorescent ligand competition binding in live CHO cells, 25 nM CA200645 tracer
pKi: −log10 of the molar value.

molecule	tested.target	pKi
Nc1nc2ccc(Cl)cc2c2nc(-c3ccco3)nn12 [CGS15943]	human A3AR (Homo sapiens, UniProt P0DMS8)	7.91

---

Measured % 25 nM CA200645 binding, listed per entry for reference.
tested.target: human A3AR (Homo sapiens)
Construct: expressed in transfected cells
Sequence (P0DMS8 1-318): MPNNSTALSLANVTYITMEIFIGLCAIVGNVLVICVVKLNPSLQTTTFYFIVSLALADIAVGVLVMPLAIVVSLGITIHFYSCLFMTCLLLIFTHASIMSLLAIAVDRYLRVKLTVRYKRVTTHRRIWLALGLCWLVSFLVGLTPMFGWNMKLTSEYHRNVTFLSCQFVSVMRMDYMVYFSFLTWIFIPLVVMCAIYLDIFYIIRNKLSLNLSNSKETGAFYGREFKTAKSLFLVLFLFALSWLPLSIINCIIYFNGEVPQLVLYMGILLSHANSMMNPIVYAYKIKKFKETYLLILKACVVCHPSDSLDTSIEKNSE
assay.remarks: LOPAC library primary screen: single concentration (10 μM) inhibition of 25 nM CA200645 binding, PHERAstar FS

compound	% 25 nM CA200645 binding
Br.CCCN1CCC2c3cc(O)ccc3CCC21 (racemic) [cis(+/-)-8-OH-PBZI hydrobromide]	98.1 ± 5.1%
C[C@](N)(Cc1ccc(O)c(O)c1)C(=O)O [L-alpha-Methyl DOPA]	92.6 ± 21.6%
NC(=O)c1ncn([C@@H]2O[C@H](CO)[C@@H](O)[C@H]2O)c1O [Mizoribine]	101.6 ± 4.8%
Br.CCSC(=N)N [S-Ethylisothiourea hydrobromide]	91.5 ± 10.5%
Cl.Clc1cc(I)cc(Cl)c1NC1=NCCN1 [p-Iodoclonidine hydrochloride]	77.2 ± 42.2%
O=C1c2c(O)ccc(O)c2C(=O)c2c(NCCNCCO)ccc(NCCNCCO)c21 [Mitoxantrone]	88.5 ± 12.7%
COc1ccc2[nH]c3c(c2c1)CCNC3	93.4 ± 1.1%
COc1ccc(/C=C/c2nc(NCCCN(C)C)c3ccccc3n2)cc1.Cl.Cl.O [CP-31398 dihydrochloride hydrate]	111.8 ± 1.4%
Nc1nccc2c1ncn2[C@@H]1O[C@H](CO)[C@@H](O)[C@H]1O [3-deazaadenosine]	93.8 ± 11.9%

---

tested.target: human A3AR (Homo sapiens, UniProt P0DMS8)
Construct: expressed in transfected cells
assay.remarks: LOPAC library primary screen: single concentration (10 μM) inhibition of 25 nM CA200645 binding, PHERAstar FS
Counter-ions that a name gives are not always drawn.
recorded.metric: % 25 nM CA200645 binding (%)

molecule	tested.target	recorded.metric	endpoint.result
CN(C)CC/C=C1/c2ccccc2Sc2ccc(Cl)cc21 [Chlorprothixene hydrochloride]	human A3AR (Homo sapiens, UniProt P0DMS8)	% 25 nM CA200645 binding	96.6
OC[C@H]1O[C@@H](n2cnc3c(N[C@H]4CCC[C@@H]4O)ncnc32)[C@H](O)[C@@H]1O [GR 79236X]	human A3AR (Homo sapiens, UniProt P0DMS8)	% 25 nM CA200645 binding	78.0
Cn1ccnc1 [1-Methylimidazole]	human A3AR (Homo sapiens, UniProt P0DMS8)	% 25 nM CA200645 binding	115.7
CCN(CC)CCNC(=O)c1cc(S(C)(=O)=O)ccc1OC [Tiapride hydrochloride]	human A3AR (Homo sapiens, UniProt P0DMS8)	% 25 nM CA200645 binding	98.9
C[N+](C)(C)CC(=O)O [Betaine hydrochloride]	human A3AR (Homo sapiens, UniProt P0DMS8)	% 25 nM CA200645 binding	78.7
CC(C)(Sc1ccc(CCN(CCCCC2CCCCC2)C(=O)NC2CCCCC2)cc1)C(=O)O [GW7647]	human A3AR (Homo sapiens, UniProt P0DMS8)	% 25 nM CA200645 binding	55.8
OC[C@H]1NC[C@H](O)[C@@H](O)[C@@H]1O [1-Deoxynojirimycin hydrochloride]	human A3AR (Homo sapiens, UniProt P0DMS8)	% 25 nM CA200645 binding	98.5
CCCCCCCC/C=C\CCCCCCCC(=O)NCc1ccc(O)c(OC)c1 [Olvanil]	human A3AR (Homo sapiens, UniProt P0DMS8)	% 25 nM CA200645 binding	76.7
CCC1(C)CC(=O)NC1=O (stereo not shown) [Ethosuximide]	human A3AR (Homo sapiens, UniProt P0DMS8)	% 25 nM CA200645 binding	88.4
Brc1c(Br)c(Br)c2n[nH]nc2c1Br [TBB]	human A3AR (Homo sapiens, UniProt P0DMS8)	% 25 nM CA200645 binding	67.4
